Would you mind telling me the reported pIC50 of each entry?
TGT: Non-receptor tyrosine-protein kinase TYK2 (Homo sapiens, UniProt P29597)
Sequence (P29597 whole entry): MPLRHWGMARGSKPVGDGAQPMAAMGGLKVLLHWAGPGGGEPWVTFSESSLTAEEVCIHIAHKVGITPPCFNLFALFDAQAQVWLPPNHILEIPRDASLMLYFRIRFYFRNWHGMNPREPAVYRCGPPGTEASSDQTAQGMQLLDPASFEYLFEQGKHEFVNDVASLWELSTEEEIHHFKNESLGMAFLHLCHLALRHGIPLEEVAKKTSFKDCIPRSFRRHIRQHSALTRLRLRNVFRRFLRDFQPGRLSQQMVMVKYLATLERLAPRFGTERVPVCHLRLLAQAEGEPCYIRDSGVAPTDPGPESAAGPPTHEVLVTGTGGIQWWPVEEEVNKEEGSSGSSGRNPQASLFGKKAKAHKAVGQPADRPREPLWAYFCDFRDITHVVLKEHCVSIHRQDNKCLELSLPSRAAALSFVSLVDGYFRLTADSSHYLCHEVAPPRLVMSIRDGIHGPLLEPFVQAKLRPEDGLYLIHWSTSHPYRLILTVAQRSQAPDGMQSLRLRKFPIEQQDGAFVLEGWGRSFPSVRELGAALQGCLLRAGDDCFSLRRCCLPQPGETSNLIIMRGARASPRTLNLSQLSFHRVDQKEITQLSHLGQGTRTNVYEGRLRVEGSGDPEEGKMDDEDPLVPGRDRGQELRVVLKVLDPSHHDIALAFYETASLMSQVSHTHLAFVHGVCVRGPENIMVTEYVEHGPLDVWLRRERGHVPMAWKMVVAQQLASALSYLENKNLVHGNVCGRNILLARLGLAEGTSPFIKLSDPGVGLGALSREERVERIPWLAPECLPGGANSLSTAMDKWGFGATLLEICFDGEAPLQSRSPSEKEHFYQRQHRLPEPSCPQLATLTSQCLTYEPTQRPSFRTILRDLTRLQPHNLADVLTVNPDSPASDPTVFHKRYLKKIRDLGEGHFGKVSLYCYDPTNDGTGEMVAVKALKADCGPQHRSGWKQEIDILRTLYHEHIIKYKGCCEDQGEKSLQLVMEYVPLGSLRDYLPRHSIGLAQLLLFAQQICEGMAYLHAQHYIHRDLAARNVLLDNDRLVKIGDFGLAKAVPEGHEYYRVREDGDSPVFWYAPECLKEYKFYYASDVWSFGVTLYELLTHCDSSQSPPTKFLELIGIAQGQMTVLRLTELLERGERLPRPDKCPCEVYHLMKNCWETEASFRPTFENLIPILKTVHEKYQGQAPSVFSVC
ASSAY_TEXT: JAK Caliper Enzyme Assay at 1 mM ATP: Test article was solubilized in dimethyl sulfoxide (DMSO) to a stock concentration of 30 mM. An 11-point half log dilution series was created in DMSO with a top concentration of 600 μM. […] The compound plates were diluted 1 to 60 resulting in a top final assay compound concentration of 10 μM and a 2% DMSO concentration.Test article and assay controls were added to a 384-well plate. Reaction mixtures contained 20 mM HEPES, pH 7.4, 10 mM magnesium chloride, 0.01% bovine serum albumin (BSA), 0.0005% Tween 20, 1 mM ATP and 1 μM peptide substrate. The JAK1 and TYK2 assays contained 1 μM of the IRStide peptide (5FAM-[…]) and the JAK2 and JAK3 assays contained 1 μM of the JAKtide peptide (FITC-[…]). […] Enzyme concentrations and incubation times were optimized for each new enzyme preps and were modified slightly over time to ensure 20%-30% phosphorylation. The assays were stopped with a final concentration of 10 mM EDTA, 0.1% Coating Reagent and 100 mM HEPES, pH=7.4. The assay plates were placed on a Caliper Life Science Lab Chip 3000 (LC3000) instrument, and each well was sampled using appropriate separation conditions to measure the unphosphorylated and phosphorylated peptide.
For clarity, pIC50 is expressed as the negative log10 of concentration in mol/L.

I am curious: what pIC50 value has been reported for CCc1cc(O)ccc1-c1cc2[nH]ncc2c(N2CCc3cc(-n4cnc(C)c4)ccc3C2)n1 ?
6.14

Now try CSCCNc1nc(-c2cc(F)c(O)cc2CC(F)(F)F)cc2[nH]nc(-c3nc4c([nH]3)CCN(Cc3ccccc3)C4)c12 .
6.76

Now try CCc1cc(O)ccc1-c1cc2[nH]ncc2c(N2CCc3ccc(OC)c(OC)c3C2)n1 .
5.81

Now try CN(c1ccc(F)cc1CNc1nc(-c2cc(F)c(O)cc2CC(F)(F)F)cc2[nH]nc(C(N)=O)c12)S(C)(=O)=O .
6.90

Now try CCc1cc(O)ccc1-c1cc2[nH]ncc2c(N2CCc3c(Cl)cccc3C2)n1 .
6.25

Now try CCc1cc(O)ccc1-c1cc2[nH]ncc2c(N2CCc3cc(OC)c(OCc4ccccc4)cc3C2)n1 .
5.56

Now try CCc1cc(O)c(F)cc1-c1cc2[nH]ncc2c(NCc2ccccc2N(C)S(=O)(=O)CC)n1 .
8.08

Now try CCc1cc(O)ccc1-c1cc2[nH]ncc2c(N2CCc3cc(OCCOC)ccc3C2)n1 .
6.54

Now try CCc1cc(O)ccc1-c1cc2[nH]ncc2c(N2CCc3cccc(OC)c3C2)n1 .
6.32

Now try CCc1cc(O)ccc1-c1cc2[nH]ncc2c(N2CCc3cc(F)ccc3C2)n1 .
6.52

----------
TGT: Tyrosine-protein kinase JAK1 (Homo sapiens, UniProt P23458)
Sequence (P23458 whole entry): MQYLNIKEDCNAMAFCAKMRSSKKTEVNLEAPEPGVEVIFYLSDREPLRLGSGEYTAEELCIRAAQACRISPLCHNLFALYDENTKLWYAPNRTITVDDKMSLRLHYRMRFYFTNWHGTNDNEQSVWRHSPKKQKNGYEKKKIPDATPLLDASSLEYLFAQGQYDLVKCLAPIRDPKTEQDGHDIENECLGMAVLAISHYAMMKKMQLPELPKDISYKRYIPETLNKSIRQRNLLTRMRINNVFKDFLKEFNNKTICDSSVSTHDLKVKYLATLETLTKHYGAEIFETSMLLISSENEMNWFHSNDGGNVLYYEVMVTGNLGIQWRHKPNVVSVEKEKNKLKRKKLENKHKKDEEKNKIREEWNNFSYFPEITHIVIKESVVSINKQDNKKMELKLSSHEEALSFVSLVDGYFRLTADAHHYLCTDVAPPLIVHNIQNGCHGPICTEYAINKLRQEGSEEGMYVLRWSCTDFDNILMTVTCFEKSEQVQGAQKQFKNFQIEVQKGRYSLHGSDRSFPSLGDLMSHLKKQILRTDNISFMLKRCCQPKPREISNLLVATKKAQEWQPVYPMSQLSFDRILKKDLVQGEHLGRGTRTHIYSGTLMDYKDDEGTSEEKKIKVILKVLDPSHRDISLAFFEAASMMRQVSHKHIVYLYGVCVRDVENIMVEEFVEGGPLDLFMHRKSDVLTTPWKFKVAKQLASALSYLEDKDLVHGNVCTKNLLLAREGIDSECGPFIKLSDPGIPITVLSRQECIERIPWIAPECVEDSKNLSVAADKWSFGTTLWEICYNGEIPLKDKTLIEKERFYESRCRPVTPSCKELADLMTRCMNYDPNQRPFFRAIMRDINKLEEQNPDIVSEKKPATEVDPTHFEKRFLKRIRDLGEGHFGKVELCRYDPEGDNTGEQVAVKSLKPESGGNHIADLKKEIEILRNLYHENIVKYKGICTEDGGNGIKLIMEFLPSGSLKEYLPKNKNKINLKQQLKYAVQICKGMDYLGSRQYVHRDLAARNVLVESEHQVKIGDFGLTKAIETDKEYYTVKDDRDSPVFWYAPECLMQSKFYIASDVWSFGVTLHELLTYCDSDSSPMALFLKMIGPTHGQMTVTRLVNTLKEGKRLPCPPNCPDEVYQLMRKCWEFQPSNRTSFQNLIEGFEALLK
ASSAY_TEXT: JAK Caliper Enzyme Assay at 1 mM ATP: Test article was solubilized in dimethyl sulfoxide (DMSO) to a stock concentration of 30 mM. An 11-point half log dilution series was created in DMSO with a top concentration of 600 μM. […] The compound plates were diluted 1 to 60 resulting in a top final assay compound concentration of 10 μM and a 2% DMSO concentration.Test article and assay controls were added to a 384-well plate. Reaction mixtures contained 20 mM HEPES, pH 7.4, 10 mM magnesium chloride, 0.01% bovine serum albumin (BSA), 0.0005% Tween 20, 1 mM ATP and 1 μM peptide substrate. The JAK1 and TYK2 assays contained 1 μM of the IRStide peptide (5FAM-[…]) and the JAK2 and JAK3 assays contained 1 μM of the JAKtide peptide (FITC-[…]). […] Enzyme concentrations and incubation times were optimized for each new enzyme preps and were modified slightly over time to ensure 20%-30% phosphorylation. The assays were stopped with a final concentration of 10 mM EDTA, 0.1% Coating Reagent and 100 mM HEPES, pH=7.4. The assay plates were placed on a Caliper Life Science Lab Chip 3000 (LC3000) instrument, and each well was sampled using appropriate separation conditions to measure the unphosphorylated and phosphorylated peptide.
READOUT_TYPE: IC50 (µM)
Numbers only; they are read as µM.

I am curious: what IC50 value has been reported for CCCCN(c1ccccc1CN(C)c1nc(-c2cc(F)c(O)cc2CC)cc2[nH]ncc12)S(C)(=O)=O ?
0.0195

Now try CC(=O)N1CCc2[nH]c(-c3n[nH]c4nc(-c5cc(F)c(O)cc5CC(F)(F)F)nc(NCc5cc(O)ccc5N(C)S(C)(=O)=O)c34)nc2C1 .
0.0032

Now try CCc1cc(O)ccc1-c1cc2[nH]ncc2c(N2CCc3cc(OC)c(OCc4ccccc4)cc3C2)n1 .
0.0674

Now try CCc1cc(O)ccc1-c1cc2[nH]ncc2c(N2CCc3cc(-n4cnc(C)c4)ccc3C2)n1 .
0.0107

----------
TGT: Tyrosine-protein kinase JAK2 (Homo sapiens)
Sequence (O60674 whole entry): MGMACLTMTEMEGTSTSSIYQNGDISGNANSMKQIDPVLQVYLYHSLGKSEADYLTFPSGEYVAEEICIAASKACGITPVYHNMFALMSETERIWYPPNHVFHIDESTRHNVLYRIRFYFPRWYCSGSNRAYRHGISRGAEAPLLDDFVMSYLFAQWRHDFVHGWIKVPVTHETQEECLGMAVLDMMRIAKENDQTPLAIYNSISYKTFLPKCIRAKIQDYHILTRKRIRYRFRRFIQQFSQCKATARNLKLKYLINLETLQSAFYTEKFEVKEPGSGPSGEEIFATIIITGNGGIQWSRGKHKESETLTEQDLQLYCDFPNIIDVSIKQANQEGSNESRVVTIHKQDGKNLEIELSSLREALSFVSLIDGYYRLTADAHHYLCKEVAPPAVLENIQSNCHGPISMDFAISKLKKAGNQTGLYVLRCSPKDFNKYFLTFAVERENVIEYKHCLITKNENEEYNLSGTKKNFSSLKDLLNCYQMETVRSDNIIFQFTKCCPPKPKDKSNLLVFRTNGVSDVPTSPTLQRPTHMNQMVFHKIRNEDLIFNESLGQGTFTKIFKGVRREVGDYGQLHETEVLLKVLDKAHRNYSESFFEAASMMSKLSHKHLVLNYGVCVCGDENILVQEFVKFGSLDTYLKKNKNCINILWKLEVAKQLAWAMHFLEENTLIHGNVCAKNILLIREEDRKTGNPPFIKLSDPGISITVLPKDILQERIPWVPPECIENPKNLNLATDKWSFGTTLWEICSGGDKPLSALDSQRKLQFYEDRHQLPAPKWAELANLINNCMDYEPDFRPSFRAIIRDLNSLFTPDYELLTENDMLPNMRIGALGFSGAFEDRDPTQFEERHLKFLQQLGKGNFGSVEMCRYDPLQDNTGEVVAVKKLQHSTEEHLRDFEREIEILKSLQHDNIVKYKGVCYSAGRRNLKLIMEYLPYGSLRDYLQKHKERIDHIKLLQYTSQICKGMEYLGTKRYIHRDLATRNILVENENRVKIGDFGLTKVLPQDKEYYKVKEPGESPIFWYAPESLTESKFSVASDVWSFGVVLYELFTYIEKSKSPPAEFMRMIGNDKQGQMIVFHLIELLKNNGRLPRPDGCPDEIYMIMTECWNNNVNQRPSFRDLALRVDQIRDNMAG
ASSAY_TEXT: JAK Caliper Enzyme Assay at 1 mM ATP: Test article was solubilized in dimethyl sulfoxide (DMSO) to a stock concentration of 30 mM. An 11-point half log dilution series was created in DMSO with a top concentration of 600 μM. […] The compound plates were diluted 1 to 60 resulting in a top final assay compound concentration of 10 μM and a 2% DMSO concentration.Test article and assay controls were added to a 384-well plate. Reaction mixtures contained 20 mM HEPES, pH 7.4, 10 mM magnesium chloride, 0.01% bovine serum albumin (BSA), 0.0005% Tween 20, 1 mM ATP and 1 μM peptide substrate. […] Enzyme concentrations and incubation times were optimized for each new enzyme preps and were modified slightly over time to ensure 20%-30% phosphorylation. The assays were stopped with a final concentration of 10 mM EDTA, 0.1% Coating Reagent and 100 mM HEPES, pH=7.4. The assay plates were placed on a Caliper Life Science Lab Chip 3000 (LC3000) instrument, and each well was sampled using appropriate separation conditions to measure the unphosphorylated and phosphorylated peptide.
Would you mind telling me the reported pIC50 of each entry?
For clarity, pIC50 is expressed as the negative log10 of concentration in mol/L.

I am curious: what pIC50 value has been reported for CCc1cc(O)ccc1-c1cc2[nH]ncc2c(N2CCc3cc(-n4cnc(C)c4)ccc3C2)n1 ?
7.58

Now try CN(c1ccc(O)cc1CNc1nc(-c2cc(F)c(O)cc2CC(F)(F)F)nc2[nH]nc(C(N)=O)c12)S(=O)(=O)c1ccccc1 .
6.91

Now try CCc1cc(O)ccc1-c1cc2[nH]ncc2c(N2CCc3ccc(OC)c(OC)c3C2)n1 .
7.28

Now try CCc1cc(O)ccc1-c1cc2[nH]ncc2c(N2CCc3cc(OCCOC)ccc3C2)n1 .
7.59

Now try CCc1cc(O)ccc1-c1cc2[nH]ncc2c(N2CCc3c(Cl)cccc3C2)n1 .
7.33

Now try CCCCN(c1ccccc1CN(C)c1nc(-c2cc(F)c(O)cc2CC)cc2[nH]ncc12)S(C)(=O)=O .
7.36

Now try CN(c1ccc(F)cc1CNc1nc(-c2cc(F)c(O)cc2CC(F)(F)F)cc2[nH]nc(C(N)=O)c12)S(C)(=O)=O .
7.39

Now try CCc1cc(O)ccc1-c1cc2[nH]ncc2c(N2CCc3cc(F)ccc3C2)n1 .
7.77

Now try CCc1cc(O)ccc1-c1cc2[nH]ncc2c(N2CCc3cccc(OC)c3C2)n1 .
7.60

Now try CSCCNc1nc(-c2cc(F)c(O)cc2CC(F)(F)F)cc2[nH]nc(-c3nc4c([nH]3)CCN(Cc3ccccc3)C4)c12 .
6.71

----------
TGT: UniProtKB P23458
ASSAY_TEXT: JAK Caliper Enzyme Assay at 1 mM ATP: Test article was solubilized in dimethyl sulfoxide (DMSO) to a stock concentration of 30 mM. An 11-point half log dilution series was created in DMSO with a top concentration of 600 μM. […] The compound plates were diluted 1 to 60 resulting in a top final assay compound concentration of 10 μM and a 2% DMSO concentration.Test article and assay controls were added to a 384-well plate. Reaction mixtures contained 20 mM HEPES, pH 7.4, 10 mM magnesium chloride, 0.01% bovine serum albumin (BSA), 0.0005% Tween 20, 1 mM ATP and 1 μM peptide substrate. The JAK1 and TYK2 assays contained 1 μM of the IRStide peptide (5FAM-[…]) and the JAK2 and JAK3 assays contained 1 μM of the JAKtide peptide (FITC-[…]). […] Enzyme concentrations and incubation times were optimized for each new enzyme preps and were modified slightly over time to ensure 20%-30% phosphorylation. The assays were stopped with a final concentration of 10 mM EDTA, 0.1% Coating Reagent and 100 mM HEPES, pH=7.4. The assay plates were placed on a Caliper Life Science Lab Chip 3000 (LC3000) instrument, and each well was sampled using appropriate separation conditions to measure the unphosphorylated and phosphorylated peptide.
Would you mind telling me the reported IC50 of each entry?
Provide a numeric answer, followed by its unit.

I am curious: what IC50 value has been reported for CSCCNc1nc(-c2cc(F)c(O)cc2CC(F)(F)F)cc2[nH]nc(-c3nc4c([nH]3)CCN(Cc3ccccc3)C4)c12 ?
50 nM

Now try CCc1cc(O)ccc1-c1cc2[nH]ncc2c(N2CCc3ccc(OC)c(OC)c3C2)n1 .
13.8 nM

Now try CN(c1ccc(F)cc1CNc1nc(-c2cc(F)c(O)cc2CC(F)(F)F)cc2[nH]nc(C(N)=O)c12)S(C)(=O)=O .
6.6 nM

Now try CCc1cc(O)ccc1-c1cc2[nH]ncc2c(N2CCc3cc(OCCOC)ccc3C2)n1 .
10.1 nM

Now try CCc1cc(O)ccc1-c1cc2[nH]ncc2c(N2CCc3cc(F)ccc3C2)n1 .
9.7 nM

Now try CCc1cc(O)c(F)cc1-c1cc2[nH]ncc2c(NCc2ccccc2N(C)S(=O)(=O)CC)n1 .
0.7 nM

Now try CCc1cc(O)ccc1-c1cc2[nH]ncc2c(N2CCc3c(Cl)cccc3C2)n1 .
39.4 nM

These entries and their values trace back to ChEMBL document CHEMBL5725720.
